B1: Zinc finger MYM-type protein 6, residues 427 to 504; numbered along this chain, O95789 (parent)
chain: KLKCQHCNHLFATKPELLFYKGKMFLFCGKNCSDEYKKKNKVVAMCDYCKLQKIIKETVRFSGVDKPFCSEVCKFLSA

# Variants of: B1
# MEASUREMENT PROTOCOL: abundance fitness (aPCA) (normalised: wild type 0, dead -1); higher = more abundant; growth selection in yeast, the domain comes from the species named
# PROTOCOL CONDITIONS: Homo sapiens
ATTRIBUTE MEASURED: abundance fitness

INSERT INTO measurements (biopolymer_sequence, attribute_measured, endpoint_result) VALUES
  ('KLKCQHCNHLFATKPELLFYKGKMFLFCGKNCSDEYKKKHKVVAMCDYCKLQKIIKETVRFSGVDKPFCSEVCKFLSA', 'abundance fitness', -0.104),
  ('KLKCQHCNHLFATKPELLFYKGKMFLFCGKNCSDEYKKKNKVVAMCDQCKLQKIIKETVRFSGVDKPFCSEVCKFLSA', 'abundance fitness', 0.059),
  ('KLKCQHCNHLFATKPELLFYKGKMFLFCGKNCSDEYKKKNKVVAMCDYCKLQKIIKETVRFSGVDKPFCSEVCKPLSA', 'abundance fitness', 0.039),
  ('KLKCQHCNHLFATKPELLFYKGKMFLICGKNCSDEYKKKNKVVAMCDYCKLQKIIKETVRFSGVDKPFCSEVCKFLSA', 'abundance fitness', -0.365),
  ('KLKCQHCNHLFATKPELLFYKGKMFLFCGKNCSDEYKKKNKVVAMCDYCKLQKIIKETVRFSGVDKPFCSEVVKFLSA', 'abundance fitness', -0.728),
  ('KLKCQHCNHLFATKPELLFYKGKMFLFCGKNCSDEYKKKNKVVAMCDYCKLQKIIKETVRFSGVDKPCCSEVCKFLSA', 'abundance fitness', 0.204),
  ('KLKCQHCNHLFATKPELLFYKGKMFLFCGKNCSDEYKKKNKVVAMCDYCKLQKIIKETVRFSGVDKSFCSEVCKFLSA', 'abundance fitness', 0.122),
  ('KLKCQHCNHLFATKPELLFYKGKMFLFCGKNCFDEYKKKNKVVAMCDYCKLQKIIKETVRFSGVDKPFCSEVCKFLSA', 'abundance fitness', -0.289);
